# targetOfAssay: UniProtKB O43613
# experimentalProtocol: Orexin antagonist activity, intracellular calcium FLIPR assay, RBL-2H3 cells expressing human orexin receptor 1
# appliedConditions: RBL-2H3 cells stably expressing human orexin receptor 1; orexin-A at approx. 80% maximal response; compound added 15 minutes before; read-out: Human Orexin1R IC50
reportedMetric: IC50
Please answer in the form of a number followed by its unit of measurement.

So what does the record say about IC50 for CC1(Nc2ccc(C(F)(F)F)cn2)CCCC1NC(=O)c1ncccc1-c1ncccn1 (stereo not drawn) ?
11 nM

So what does the record say about IC50 for CCc1nc(C(F)(F)F)cnc1N[C@H]1CCC[C@@H]1NC(=O)c1ncccc1-n1nccn1 ?
14 nM

So what does the record say about IC50 for C[C@]1(Nc2cnc(C(F)(F)F)cn2)CCC[C@@H]1NC(=O)c1ccccc1-c1ncccn1 ?
6 nM

---

# targetOfAssay: human orexin receptor 1 (Homo sapiens (Human))
# Sequence (O43613 whole entry): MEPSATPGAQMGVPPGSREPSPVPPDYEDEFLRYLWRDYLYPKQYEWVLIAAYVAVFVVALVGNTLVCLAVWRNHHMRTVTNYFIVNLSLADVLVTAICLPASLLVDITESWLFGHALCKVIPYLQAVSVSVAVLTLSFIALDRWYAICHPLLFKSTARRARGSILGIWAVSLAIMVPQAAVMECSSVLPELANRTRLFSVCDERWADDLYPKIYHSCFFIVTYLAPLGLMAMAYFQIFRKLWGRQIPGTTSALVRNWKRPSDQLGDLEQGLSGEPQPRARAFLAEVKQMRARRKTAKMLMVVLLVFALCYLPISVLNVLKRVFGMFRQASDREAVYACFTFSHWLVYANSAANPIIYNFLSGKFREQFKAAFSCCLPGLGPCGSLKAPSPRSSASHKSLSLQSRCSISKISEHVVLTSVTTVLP
# experimentalProtocol: Orexin antagonist activity, intracellular calcium FLIPR assay, RBL-2H3 cells expressing human orexin receptor 1
# appliedConditions: RBL-2H3 cells stably expressing human orexin receptor 1; orexin-A at approx. 80% maximal response; compound added 15 minutes before; read-out: Human Orexin1R IC50
Would you mind telling me the reported pIC50 of each entry?
// pIC50: -log10(molar conc.)

So what does the record say about pIC50 for CCc1nc(C(F)(F)F)cnc1N[C@H]1CCC[C@@H]1NC(=O)c1ccccc1-c1ncccn1 [Example 151] ?
7.54

So what does the record say about pIC50 for Cc1noc(-c2ccccc2C(=O)N[C@H]2CCC[C@@H]2Nc2cnc(C(F)(F)F)cn2)n1 [Example 15] ?
7.31

So what does the record say about pIC50 for O=C(NC1CCCC1Cc1cc(C(F)(F)F)ccn1)c1ccccc1-n1nccn1 (stereo not drawn) [Example 22] ?
6.18

So what does the record say about pIC50 for O=C(N[C@H]1CCC[C@@H]1Nc1ccc(C(F)(F)F)cn1)c1cc(Cl)ccc1-n1nccn1 [Example 97] ?
6.91

So what does the record say about pIC50 for CC1(Nc2ncc(C(F)(F)F)cn2)CCCC1NC(=O)c1ccccc1-n1nccn1 (stereo not drawn) [Example 93] ?
7.46

So what does the record say about pIC50 for CCOc1cccnc1C(=O)N[C@H]1CCC[C@@H]1Nc1cnc(C(F)(F)F)cn1 [Example 60] ?
6.07

So what does the record say about pIC50 for C[C@]1(Nc2cnc(C(F)(F)F)cn2)CCC[C@@H]1NC(=O)c1ncccc1OC(F)(F)F [Example 90] ?
7.17

So what does the record say about pIC50 for O=C(N[C@H]1CCC[C@@H]1Nc1cnc(C(F)(F)F)cn1)c1c(F)ccc(F)c1-n1nccn1 [Example 64] ?
7.24

So what does the record say about pIC50 for CCc1nc(C(F)(F)F)cnc1N[C@H]1CCC[C@@H]1NC(=O)c1ncccc1-c1ncccn1 [Example 150] ?
7.37

So what does the record say about pIC50 for CCOc1cccnc1C(=O)N[C@H]1CCC[C@]1(C)Nc1cnc(C(F)(F)F)cn1 [Example 86] ?
6.89

So what does the record say about pIC50 for O=C(N[C@H]1CCC[C@@H]1Nc1cnc(C(F)(F)F)cn1)c1cc(Cl)ccc1-n1cccn1 [Example 59] ?
6.79

So what does the record say about pIC50 for CCc1nc(C(F)(F)F)cnc1N[C@H]1CCC[C@@H]1NC(=O)c1ccccc1-c1nc(C)no1 [Example 149] ?
7.60

So what does the record say about pIC50 for Cc1ccc(-n2nccn2)c(C(=O)NC2CCCC2Cc2ccc(C(F)(F)F)cn2)c1 (stereo not drawn) [Example 26] ?
6.21

So what does the record say about pIC50 for CCOc1ccc(C)cc1C(=O)N[C@H]1CCC[C@@H]1Nc1cnc(C(F)(F)F)cn1 [Example 29] ?
6.55

So what does the record say about pIC50 for O=C(N[C@H]1CCC[C@@H]1Nc1cnc(C(F)(F)F)cn1)c1ccccc1C(F)F [Example 65] ?
6.10
